# system_name: c-Cbl (Homo sapiens (Human))
# assay_comment: C-Cbl LCK Ub TR-FRET assay (c-cbl Lck HTRF)
# Assay type: biochemical
# Experimental: 6 μL of detection mixture was added to all wells and briefly centrifuged before incubating for 20 min at room temperature. […] IC50 was generated using no LCK as the low control and DMSO as the high control.
pIC50: −log10 of the molar value.
Outcome label depends on pIC50 relative to 7: at/above gives 1 (yes), below gives 0 (no).

* Cn1cnnc1C[C@]1(c2cccc(N3Cc4c(cc(CNC5(C)CCC5)cc4C(F)(F)F)C3=O)c2)C[C@@H](C#N)C1 | 1 (yes)
* Cn1cnnc1CC(F)(F)c1cccc(N2Cc3c(cccc3C(F)(F)F)C2=O)c1 | 0 (no)
* CC(C)Nc1cc(C2(Cc3nncn3C)CCC2)cc(N2Cc3c(cc(CN4CCN(C)C[C@@H]4C(C)C)cc3C(F)(F)F)C2=O)n1 | 1 (yes)
* CC(C)[C@H]1CN(C)CCN1Cc1cc2c(c(C(F)(F)F)c1)CN(c1cccc(C3([C@H](F)c4nncn4-c4ccccc4)COC3)c1)C2=O | 0 (no)
* CC(C)[C@H]1CN(C)CCN1Cc1cc2c(c(C(F)(F)F)c1)CN(c1cccc(C3([C@@H](F)c4nncn4C)CC(F)(F)C3)c1)C2=O | 1 (yes)
* Cn1cnnc1[C@H](F)C1(c2cccc(N3Cc4c(cc(CN5CC6(CCO6)C5)cc4C(F)(F)F)C3=O)c2)COC1 | 0 (no)

----------
# system_name: c-Cbl (Homo sapiens (Human), UniProt P22681)
# Sequence (P22681 47-435): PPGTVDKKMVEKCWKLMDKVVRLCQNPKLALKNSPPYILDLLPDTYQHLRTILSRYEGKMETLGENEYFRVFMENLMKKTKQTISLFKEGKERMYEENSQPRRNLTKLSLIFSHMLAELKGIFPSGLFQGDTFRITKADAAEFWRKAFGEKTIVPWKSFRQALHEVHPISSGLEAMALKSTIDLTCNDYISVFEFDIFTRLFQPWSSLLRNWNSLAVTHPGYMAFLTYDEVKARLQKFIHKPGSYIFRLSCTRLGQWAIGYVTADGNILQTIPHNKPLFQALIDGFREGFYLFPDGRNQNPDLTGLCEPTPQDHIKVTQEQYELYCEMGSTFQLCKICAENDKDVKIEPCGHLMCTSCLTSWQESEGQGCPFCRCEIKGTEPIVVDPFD
# assay_comment: C-Cbl LCK Ub TR-FRET assay (c-cbl Lck HTRF)
# Assay type: biochemical
pIC50: −log10 of the molar value.
Outcome label depends on pIC50 relative to 6: at/above gives 1, below gives -1.

* Cc1cn(CC2(c3cccc(N4Cc5c(cc(CN6CCN(C)C[C@@H]6C(C)C)cc5C(F)(F)F)C4=O)c3)COC2)nn1 | -1
* CCCc1cc(C2(Cc3nncn3C)CCC2)cc(N2Cc3c(cc(CNC4(C)CCC4)cc3C(F)(F)F)C2=O)n1 | 1
* CC(C)[C@@H]1CNCCN1Cc1cc2c(c(C(F)(F)F)c1)CN(c1cccc(C3([C@H](F)c4nncn4C)COC3)c1)C2=O | 1
* COC[C@H]1CCCN1Cc1cc2c(c(C(F)(F)F)c1)CN(c1cccc(C3([C@H](F)c4nncn4C)COC3)c1)C2=O | -1
* Cn1cnnc1[C@@H](F)C1(c2cccc(N3Cc4c(cc(CN5CCC6(CC6)C5)cc4C(F)(F)F)C3=O)c2)CC1 | 1
* C=CC1(O)CN(Cc2cc3c(c(C(F)(F)F)c2)CN(c2cccc(C4([C@H](F)c5nncn5C)COC4)c2)C3=O)C1 | 1

----------
pIC50 reference
# system_name: Cbl-b (Homo sapiens (Human), UniProt Q13191)
# Sequence (Q13191 40-426): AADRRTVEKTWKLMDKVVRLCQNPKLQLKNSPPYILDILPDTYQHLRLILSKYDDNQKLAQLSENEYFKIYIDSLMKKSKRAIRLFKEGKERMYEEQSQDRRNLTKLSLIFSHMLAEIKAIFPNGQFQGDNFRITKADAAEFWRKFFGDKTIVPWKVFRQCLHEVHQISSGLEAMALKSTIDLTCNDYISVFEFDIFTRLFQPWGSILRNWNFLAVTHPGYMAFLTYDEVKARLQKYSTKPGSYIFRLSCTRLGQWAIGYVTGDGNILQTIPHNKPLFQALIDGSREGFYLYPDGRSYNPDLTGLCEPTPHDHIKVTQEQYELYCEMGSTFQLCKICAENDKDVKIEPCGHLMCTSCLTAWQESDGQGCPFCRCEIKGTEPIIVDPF
# assay_comment: Cbl-b LCK Ub TR-FRET assay (Cbl-b Lck HTRF)
# Format: biochemical
pIC50: −log10 of the molar value. Counter-ions that a name gives are not always drawn.
readout_name: pIC50

* CC(C)[C@H]1CN(CC(F)(F)F)CCN1Cc1cc2c(c(C(F)(F)F)c1)CN(c1cccc(C3([C@@H](F)c4nncn4C)COC3)c1)C2=O | 6.82
* Cc1cn(CC2(c3cccc(N4Cc5c(cc(CN6CCN(C)C[C@@H]6C(C)C)cc5C(F)(F)F)C4=O)c3)COC2)nn1 | 4.89
* Cn1cnnc1[C@H](F)C1(c2cccc(N3Cc4c(I)cccc4C3=O)c2)COC1 | 6.54
* CCNc1cc(C2(Cc3nncn3C)CC(F)(F)C2)cc(N2Cc3c(cc(CN4CCN(C)C[C@@H]4C(C)C)cc3C(F)(F)F)C2=O)n1 [Compound 236, formate] | 8.15
* Cn1cnnc1[C@H](F)C1(c2cccc(N3Cc4c(cc(CN5CC6(C5)CC6(F)F)cc4C(F)(F)F)C3=O)c2)COC1 | 7.57
* Cn1cnnc1[C@@H](F)C1(c2cccc(N3Cc4c(cc(CN5CCC[C@H]5CO)cc4C(F)(F)F)C3=O)c2)COC1 | 5.85
* COc1cc(C2(Cc3nncn3C)CCC2)cc(N2Cc3c(cc(CN4CCN(C)C[C@@H]4C(C)C)cc3C(F)(F)F)C2=O)n1 | 7.92
* Cn1cnnc1CC1(c2cccc(N3Cc4c(cc(CN5Cc6c[nH]nc6C5)cc4C(F)(F)F)C3=O)c2)CC(F)(F)C1 | 7.59
* Cn1cnnc1[C@H](F)[C@](C)(F)c1cccc(N2Cc3c(cc(CN4CC(C)(F)C4)cc3C(F)(F)F)C2=O)c1 | 7.06
* Cn1cnnc1CC1(c2cccc(N3Cc4c(cc(CNC5CC6(COC6)C5)cc4C(F)(F)F)C3=O)c2)CC(F)(F)C1 | 7.59
* CC(C)[C@H]1CN(C)CCN1Cc1cc2c(c(C(F)(F)F)c1)CN(c1cccc(C3([C@@H](F)c4nncn4C4CC4)COC3)c1)C2=O | 7.11
* CNCc1cc2c(c(C(F)(F)F)c1)CN(c1cc(C3(Cc4nncn4C)COC3)cc(NC3CCCC3)n1)C2=O | 6.64
* Cn1cnnc1CC1(c2cccc(N3Cc4c(cc(CN5CCN[C@H](C6CC6)C5)cc4C(F)(F)F)C3=O)c2)CC(F)(F)C1 | 7.37

----------
# system_name: Cbl-b (Homo sapiens (Human), UniProt Q13191)
# assay_comment: Cbl-b LCK Ub TR-FRET assay (Cbl-b Lck HTRF)
# Format: biochemical
readout_name: IC50

- Cn1cnnc1CC1(c2cccc(N3Cc4c(cc(CN5CCNCC5)cc4C(F)(F)F)C3=O)c2)CC(F)(F)C1 [Compound 437]: 62 nM
- CC(C)[C@H]1CN(C)CCN1Cc1cc2c(c(C(F)(F)F)c1)CN(c1cccc(C3(Cc4nncn4C)COC3)c1)C2=O [Compound 407]: 7.1 nM
- COCC1CCN(Cc2cc3c(c(C(F)(F)F)c2)CN(c2cccc(C4([C@H](F)c5nncn5C)COC4)c2)C3=O)CC1 [Compound 146]: 430 nM
- Cn1cnnc1[C@@H](F)C1(c2cccc(N3Cc4c(cc(CN5CC(O)(C6CC6)C5)cc4C(F)(F)F)C3=O)c2)COC1 [Compound 174]: 190 nM
- CC(C)[C@H]1CN(C)CCN1Cc1cc2c(c(C(F)(F)F)c1)CN(c1cccc(C3(C(F)(F)c4nncn4C)CC3)c1)C2=O [Compound 221]: 15 nM
- Cn1cnnc1CC1(c2cc(NCCN3CCCC3=O)nc(N3Cc4c(cc(CNC5(C)CCC5)cc4C(F)(F)F)C3=O)c2)CCC1 [Compound 338]: 130 nM
- CC1CN(Cc2cc3c(c(C(F)(F)F)c2)CN(c2cccc(C4([C@H](F)c5nncn5C)COC4)c2)C3=O)CCCO1 (stereo partly shown) [Compound 120]: 36 nM

----------
# system_name: Cbl-b (Homo sapiens (Human), UniProt Q13191)
# assay_comment: Cbl-b LCK Ub TR-FRET assay (Cbl-b Lck HTRF)
# Type: biochemical
Where a name gives a salt, the structure may show the parent alone.
readout_name: IC50 (nM)

• CN1CCN(Cc2cc3c(c(C(F)(F)F)c2)CN(c2cccc(C4(Cc5nncn5C)CC(F)(F)C4)c2)C3=O)CC1 = 48
• Cn1cnnc1CC1(c2cccc(N3Cc4c(cc(C5CCN5)cc4C(F)(F)F)C3=O)c2)COC1 (stereo not shown) [Compound 13, formate] = 320
• Cn1cnnc1CC1(c2cccc(N3Cc4c(cc(CNC5(C)CCC5)cc4C(F)(F)F)C3=O)c2)COC1 = 12
• Cn1cnnc1[C@@H](F)C1(c2cccc(N3Cc4c(cc(CNC5(C)CCC5)cc4C(F)(F)F)C3=O)c2)CC(F)(F)C1 = 14

----------
# system_name: c-Cbl (Homo sapiens (Human), UniProt P22681)
# assay_comment: C-Cbl LCK Ub TR-FRET assay (c-cbl Lck HTRF)
# Format: biochemical
# experimental_setup: C-cbl Lck HTRF IC50 relative to Cbl-b Lck HTRF IC50
The threshold is 2 x. Values of (fold-selectivity) beneath it are tagged 1; values meeting or exceeding it are tagged -1.

• Cn1cnnc1[C@@H](F)C1(c2cccc(N3Cc4c(cc(CN5CC(C)(O)C5)cc4C(F)(F)F)C3=O)c2)COC1 = 1
• Cn1cnnc1[C@H](F)[C@](C)(F)c1cccc(N2Cc3c(cc(CN4CC(C)(F)C4)cc3C(F)(F)F)C2=O)c1 = 1
• Cn1cnnc1[C@H](F)C1(c2cccc(N3Cc4c(cc(CN5CC6(CC6)C5)cc4C(F)(F)F)C3=O)c2)COC1 = 1
• Cn1cnnc1[C@H](F)C1(c2cccc(N3Cc4c(cc(CN5CC[C@@H](F)C5)cc4C(F)(F)F)C3=O)c2)COC1 = -1
• Cn1cnnc1[C@H](F)C1(c2cccc(N3Cc4c(cc(CN5CC6(CCO6)C5)cc4C(F)(F)F)C3=O)c2)COC1 = -1
• COC1(C)CN(Cc2cc3c(c(C(F)(F)F)c2)CN(c2cccc(C4([C@@H](F)c5nncn5C)COC4)c2)C3=O)C1 = -1
